- tested.target: mGluR2 receptor (metabotropic glutamate receptor 2) (Homo sapiens, UniProt Q14416)
- Construct: expressed in transfected cells
- Sequence (Q14416 19-872, species assumed): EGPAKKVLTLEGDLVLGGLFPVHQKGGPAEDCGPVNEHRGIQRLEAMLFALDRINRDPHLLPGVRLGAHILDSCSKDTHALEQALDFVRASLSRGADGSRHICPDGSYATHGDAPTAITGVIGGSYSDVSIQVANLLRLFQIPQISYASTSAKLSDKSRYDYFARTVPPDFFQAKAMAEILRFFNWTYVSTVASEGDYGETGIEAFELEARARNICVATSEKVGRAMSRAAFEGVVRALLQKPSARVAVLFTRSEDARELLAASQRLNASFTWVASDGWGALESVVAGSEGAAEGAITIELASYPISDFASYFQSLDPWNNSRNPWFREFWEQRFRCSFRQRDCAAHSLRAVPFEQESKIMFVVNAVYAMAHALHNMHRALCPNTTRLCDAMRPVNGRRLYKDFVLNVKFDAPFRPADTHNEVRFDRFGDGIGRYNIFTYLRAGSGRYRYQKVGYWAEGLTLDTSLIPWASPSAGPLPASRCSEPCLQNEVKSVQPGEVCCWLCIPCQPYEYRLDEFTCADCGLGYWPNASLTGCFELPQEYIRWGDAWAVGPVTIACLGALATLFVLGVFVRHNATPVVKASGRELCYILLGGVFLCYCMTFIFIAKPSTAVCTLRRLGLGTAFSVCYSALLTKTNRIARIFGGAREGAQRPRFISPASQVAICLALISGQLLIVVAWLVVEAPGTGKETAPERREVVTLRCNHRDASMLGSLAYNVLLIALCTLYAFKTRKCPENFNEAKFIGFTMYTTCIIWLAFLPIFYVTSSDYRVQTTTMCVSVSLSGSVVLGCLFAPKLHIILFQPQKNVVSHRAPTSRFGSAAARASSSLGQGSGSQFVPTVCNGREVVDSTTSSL
- assay.comment: mGluR2 Potentiator Screen, FLIPR, EC10-EC20 glutamate challenge
- Assay type: cell-based
- settings: read-out: EC50
pEC50: −log10 of the molar value.
// -1 strictly below 6 in pEC50; 1 otherwise

Past entries and their recorded results:
[
  {
    "compound": "CC(C)Oc1ccccc1C1CCN(Cc2nc3cc(Cl)ccc3n2C)CC1",
    "label.class": -1
  },
  {
    "compound": "CC1CN(Cc2nc3ccccc3n2C)CCC1c1ccc(OC(F)(F)F)cc1F (stereo not drawn)",
    "label.class": 1
  },
  {
    "compound": "CCOc1ccccc1C1CCN(Cc2nc3ccccc3n2C)CC1",
    "label.class": -1
  }
]

Is it the case that CCN1CC2(CCN(Cc3nc4ccccc4n3C)CC2)c2cc(F)ccc21 has pEC50 reaching or exceeding 6? -1

Same question for Cc1cc(C)c2c(c1)C1(CCN(Cc3nc4ccccc4n3C)CC1)CN2 please. -1

Same question for COc1ccc(-c2cccc3nc(CN4CCC(c5ccccc5F)CC4)n(C)c23)cn1 please. 1

Same question for CCOc1ccc(Cl)cc1C1CCN(Cc2nc3ccccc3n2CF)CC1 please. 1

Same question for Cn1c(CN2CCC3(CC2)CN(Cc2ccccc2)c2ccccc23)nc2ccccc21 please. -1

Same question for COc1ccc(Cl)cc1C1CCN(Cc2nc3ccccc3n2CF)CC1 please. 1

Same question for Fc1ccc(C(F)(F)F)cc1C1CCN(Cc2nc3ccccc3n2C2CC2)CC1 please. -1

Same question for Cn1c(CN2CC[C@@H]3c4c(Br)ccc(Cl)c4CC[C@H]3C2)nc2ccccc21 please. -1

Same question for Cn1c(CN2CCC(c3ccccc3C(F)(F)F)CC2)nc2cc(F)c(F)cc21 please. -1

Same question for Cn1c(CN2CCC3(CC2)CN(CC2CCCO2)c2ccc(F)cc23)nc2ccccc21 (stereo not drawn) please. -1

Same question for Cn1c(CN2CCC(c3ccccc3F)CC2)nc2cc(C(N)=O)ccc21 please. -1

Same question for Cn1c(CN2CCC(c3ccc(C(F)(F)F)cc3)CC2)nc2cccc(F)c21 please. 1

Same question for Cn1c(CN2CCC(c3ccc(C(F)(F)F)cc3)CC2)nc2cc(C(F)(F)F)ccc21 please. -1

Same question for CC(C)Oc1ccc(C2CCN(Cc3nc4ccccc4n3C)CC2)cc1 please. 1
